Entry source: PubChem BioAssay (Tox21)

assay: A CellTox Green Cytotoxicity Assay to monitor cytotoxicity in HepG2 cells - 16 hour (AID 1224876); conditions: CellTox Green fluorescence; series mostly up to 76.8 µM; further: nearly all actives have a fitted effect of over 45% in size
Records with an inconclusive call do not appear. Active and inactive are the calls of the source. The call rests on the fitted dose curve; in most records, active means well fitted activation curve with a large enough effect in the repeat runs; inconclusive means weak or mixed curves; inactive means flat fitted curve, though single readings scatter.
The reply should name one outcome from y for active, n for inactive

Write down the call the test reported for this compound. Item: CC(O)CN1CCN(CC(=O)[O-])CCN(CC(=O)[O-])CCN(CC(=O)[O-])CC1.[Gd+3] (centres undefined)
n

Next compound up: `CCC(C)(C)c1ccc(O)c(C(C)(C)CC)c1`
y

Next compound up: `CCOP(=O)(O)C(N)=O`
n

Next compound up: `C=CCc1ccccc1O`
n

Next compound up: `COc1ccc2c(c1OC)C(=O)O[C@H]2[C@@H]1c2cc3c(cc2CCN1C)OCO3`
n

Next compound up: `COc1cc(C[C@@H](C)N)c(OC)cc1Br`
n

Next compound up: `SCc1ccccc1`
n

Next compound up: `Nc1cccc2ccccc12`
n

Next compound up: `Clc1ccccc1`
n

Next compound up: `Cc1ccccc1`
n

Next compound up: `NC(=O)CF`
n

Next compound up: `CCCCOC(=O)CCC(=O)OCCCC`
n

Next compound up: COCc1cnc(C2=NC(C)(C(C)C)C(=O)N2)c(C(=O)O)c1 (centres undefined)
n

Next compound up: `CNC(=O)Oc1cccc(N=CN(C)C)c1`
n
